- Target under test: T1, recombinant human IL-6R sR (R&D systems) (human, UniProt P08887 20-358)
- T1 construct: Bought soluble receptor; also called rhIL-6sR; rhIL-s6R
- T1 sequence (looked up): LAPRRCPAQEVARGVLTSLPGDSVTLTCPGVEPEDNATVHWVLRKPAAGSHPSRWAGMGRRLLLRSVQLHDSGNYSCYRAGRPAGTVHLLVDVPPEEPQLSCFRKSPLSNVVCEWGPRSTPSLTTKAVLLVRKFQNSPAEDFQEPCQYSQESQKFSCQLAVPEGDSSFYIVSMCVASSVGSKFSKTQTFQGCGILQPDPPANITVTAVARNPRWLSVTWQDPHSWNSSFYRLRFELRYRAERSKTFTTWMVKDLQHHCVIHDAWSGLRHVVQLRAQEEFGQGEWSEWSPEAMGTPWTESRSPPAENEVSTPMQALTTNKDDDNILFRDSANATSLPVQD
- Test details: SPR (Biacore T100), antibody captured on Protein A, rhIL-6sR as analyte, 25 C
The following binders are shown together with reported pKd values.
Bear in mind: pKd is minus log10 of a mol/L concentration; give just that figure.

For RDC-6 (antibody, V domains shown, also called RDC-6H/L(WT)) VH: QVQLQESGPGLVRPSQTLSLTCTVSGYSITSDHAWSWVRQPPGRGLEWIGYISYSGITTYNPSLKSRVTMLRDTSKNQFSLRLSSVTAADTAVYYCARILARITAMDYWGQGSLVTVSS VL: DIQMTQSPSSLSASVGDRVTITCRASQDISSYLNWYQQKPGKAPKLLIYYTSRLHSGVPSRFSGSGSGTDFTFTISSLQPEDIATYYCQQGNTLPYTFGQGTKVEIK the binder record lists pKd as 10.54

Here is another binder to look at.
What the record says about RDC-11 (antibody, V domains shown, also called H(WT)/RDC-11L) VH: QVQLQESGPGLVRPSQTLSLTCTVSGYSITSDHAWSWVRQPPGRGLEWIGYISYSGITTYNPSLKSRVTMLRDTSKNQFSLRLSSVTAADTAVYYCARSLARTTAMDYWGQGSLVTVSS VL: DIQMTQSPSSLSASVGDRVTITCRASQDISSYLNWYQQKPGKAPKLLIYYTSRLHSGVPSRFSGSGSGTDFTFTISSLQPEDIATYYCGQGNRLPYTFGQGTKVEIK : pKd is 10.19
